Entry source: patent US20060009435A1

Test: Particle size distribution by dynamic light scattering (Malvern Mastersizer 2000)
Format: physicochemical
Conditions: dynamic light scattering
Readout: particle size D(0.50) (microns)

Solved entries (count: 2):
>>> val("CCC(=O)O[C@]1(C(=O)SCF)[C@H](C)C[C@H]2[C@@H]3C[C@H](F)C4=CC(=O)C=C[C@]4(C)[C@@]3(F)[C@@H](O)C[C@@]21C [Example 15, fluticasone propionate]")
2.67
>>> val("CCC(=O)O[C@]1(C(=O)SCF)[C@H](C)C[C@H]2[C@@H]3C[C@H](F)C4=CC(=O)C=C[C@]4(C)[C@@]3(F)[C@@H](O)C[C@@]21C [Example 13, fluticasone propionate]")
2.21

P. CCC(=O)O[C@]1(C(=O)SCF)[C@H](C)C[C@H]2[C@@H]3C[C@H](F)C4=CC(=O)C=C[C@]4(C)[C@@]3(F)[C@@H](O)C[C@@]21C [Example 14, fluticasone propionate]
Q. CCC(=O)O[C@]1(C(=O)SCF)[C@H](C)C[C@H]2[C@@H]3C[C@H](F)C4=CC(=O)C=C[C@]4(C)[C@@]3(F)[C@@H](O)C[C@@]21C [Example 16, fluticasone propionate]
When the recorded particle size D(0.50) values are compared, which is smaller: that of P or that of Q ? Your answer should be the label attached to the chosen record.
P
(P: 2.14 microns, Q: 4.11 microns)
